As shown below, each of these substances has a reported pKd value.
target: p300_330–420 (TAZ1 domain) (Homo sapiens, UniProt Q09472); construct: from residues 330-420 (used for FA and ITC experiments); GST (N, cleaved yes); made in house; host or cells: E. coli BL21 pLysS (pGEX-4T-1); assay: ITC direct titration to p300; type: binding; settings: 5 µM p300_330–420 in cell, 60 µM ligand in syringe, 35 °C, 40 mM Na-phosphate pH 7.5, 100 mM NaCl, 1 mM DTT, global fit with ternary intermediate model, 68% confidence intervals in brackets, read-out: Direct binding to p300, K d
Sequence (Q09472 330-420): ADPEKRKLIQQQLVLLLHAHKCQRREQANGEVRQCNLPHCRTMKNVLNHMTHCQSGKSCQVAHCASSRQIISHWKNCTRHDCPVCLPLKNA
In simple prose, pKd is minus the logarithm base ten of a concentration in moles per litre.

Look at this substance and give its reported pKd. Ac-IDTDFIDEEVLMSLVIEMGLDRIKELPELWLGQNEFDFM-NH2 [CITED2_218–256]
7.96

Can you check Ac-DEEVLMSLVIEMGLDRIKELPELWLGQNEFDFM-NH2 [CITED2ΔN] next?
7.29

====

target: p300–Flu-HIF-1α (Homo sapiens, UniProt Q09472); construct: from residues 330-420 (used for FA and ITC experiments); GST (N, cleaved yes); made in house; host or cells: p300: E. coli BL21 pLysS (pGEX-4T-1); tracer peptide: solid-phase synthesis; test: Fluorescence anisotropy competition against p300–Flu-HIF-1α; assay type: binding; conditions: as other FA competition values; average and standard deviation of two individual titrations (Fig. 2 and Fig. S11); SD; read-out: Kd,app FA competition against p300–Flu-HIF-1α
Sequence (Q09472 330-420): as the sequence (Q09472 330-420) above
measure: Kd (nM)
I only need the number, in nM, no unit after it.

Name the reported Kd value associated with the substance Ac-IDTDFIDEEVLMSLVIEMGLDRIKELPELWLGQNEFDFM-NH2 [CITED2_218–256]
2

Data origin: paper PMC11289882
